- ASSAY_DETAILS: Inhibition of Cdc25 phosphatase activity
pIC50: −log10 of the molar value.
REPORTED_ENDPOINT: pIC50

Field pIC50 (entry `Nc1n[nH]c2nc3ccccc3nc12` ) reads < 5.00

---

Below are ΔTm values recorded for Glycogen synthase kinase-3 beta (Homo sapiens).

Some solved entries appear below for comparison.
# MOLECULE, ΔTm
records = [
    ("CN(c1cccnc1)c1cc2c(Nc3ccc(F)c(Cl)c3)c(C#N)cnc2cn1", "6.3 °C"),
    ("O=C(O)Cc1ccc(O)c([N+](=O)[O-])c1", "0.6 °C"),
]

Glycogen synthase kinase-3 beta (Homo sapiens) data for `Nc1n[nH]c2nnc(-c3c(-c4ccccc4)nn4ccccc34)cc12` ; its ΔTm: 5 °C
